The measurements presented in this section are drawn from paper PMC7865276.

Target: lipase from porcine pancreas, TYPE II (Sus scrofa)
Construct: lipase from porcine pancreas, TYPE II; purchased Sigma-Aldrich; host or cells: porcine pancreas (tissue preparation)
Sequence (P00591 whole entry): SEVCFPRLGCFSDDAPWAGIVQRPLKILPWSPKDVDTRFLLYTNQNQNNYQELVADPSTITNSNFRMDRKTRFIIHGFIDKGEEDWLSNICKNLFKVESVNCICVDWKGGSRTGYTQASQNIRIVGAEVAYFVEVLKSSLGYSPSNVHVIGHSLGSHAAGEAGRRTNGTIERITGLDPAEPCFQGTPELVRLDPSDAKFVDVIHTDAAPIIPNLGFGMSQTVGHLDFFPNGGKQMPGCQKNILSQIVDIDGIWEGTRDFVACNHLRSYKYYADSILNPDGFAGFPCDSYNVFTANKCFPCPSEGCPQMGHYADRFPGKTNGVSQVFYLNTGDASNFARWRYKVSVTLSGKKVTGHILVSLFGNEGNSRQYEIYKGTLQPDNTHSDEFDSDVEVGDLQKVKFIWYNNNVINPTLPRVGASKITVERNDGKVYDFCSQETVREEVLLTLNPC
Assay: pancreatic lipase inhibitory activity (Lipase Kit S, BALB substrate)
Format: biochemical
Details: mean ± S.E.M. of three experiments in triplicate; tested at 0.45, 0.90, 4.5 mM
# 1.0 = IC50 below 1 mM (exclusive); 0.0 = IC50 at/above 1 mM

# count of solved cases: 3
CCC(=O)[C@@H]1C[C@@H](C)[C@]2(CC[C@@]3(C)C4=C(CC[C@@]32C)[C@@]2(C)CC[C@H](O[C@@H]3O[C@H](CO[C@@H]5OC[C@H](O)[C@H](O)[C@H]5O[C@@H]5O[C@H](CO)[C@@H](O)[C@H](O[C@@H]6O[C@H](CO)[C@@H](O)[C@H](O)[C@H]6O)[C@H]5O[C@@H]5O[C@@H](C)[C@H](O)[C@@H](O)[C@H]5O)[C@@H](O)[C@H](O)[C@H]3O)C(CO)(CO)[C@@H]2CC4)O1 [Compound 10] | 0.0
CC1CC2(CC(C)C3(CCC4(C)C5=C(CCC43C)C3(C)CCC(OC4OC(COC6OCC(O)C(O)C6OC6OC(CO)C(O)C(O)C6OC6OC(C)C(O)C(O)C6O)C(O)C(O)C4O)C(C)(CO)C3CC5)O2)OC1=O (stereo not drawn) [Compound 6] | 1.0
COC(=O)/C(C)=C/[C@H]1[C@H](OC)O[C@H]2C[C@@]3(C)C4=C(CC[C@]3(C)[C@@]2(O)[C@@H]1C)[C@@]1(C)CC[C@H](O[C@@H]2O[C@H](CO)[C@@H](O)[C@H](O)[C@H]2O[C@@H]2O[C@H](CO)[C@@H](O)[C@H](O)[C@H]2O[C@@H]2O[C@@H](C)[C@H](O)[C@@H](O)[C@H]2O)C(C)(C)[C@@H]1CC4 [Compound 2, 23α-methyl-peruvianoside A] | 1.0

Alright, here's another compound for you.
In plain terms, does CC1CC2(CC(C)C3(CCC4(C)C5=C(CCC43C)C3(C)CCC(OC4OC(COC6OCC(O)C(O)C6OC6OC(CO)C(O)C(O)C6OC6OC(C)C(O)C(O)C6O)C(O)C(O)C4O)C(CO)(CO)C3CC5)O2)OC1=O (stereo not drawn) [Compound 7] come in under 1 mM for IC50?
0.0
